# SYSTEM TESTED: equine FcRn (large alpha subunit p51) / equine beta-2-microglobulin complex, biotinylated (equine) (UniProt P30441)
# EXPERIMENTAL PROTOCOL: SPR (Biacore), pH 6
READOUT: Kd
Be sure to follow the number with its unit.

Kd in this record for equine IgG4 M428D (antibody, part only; not given: Variable domains, not shown: another chain or arm of the molecule) constant: ASTTAPKVFPLASHSAATSGSTVALGCLVSSYFPEPVTVSWNSGALTSGVHTFPSVLQSSGLYSLSSMVTVPASSLKSQTYICNVAHPASSTKVDKKIVIKECNGGCPAECLQVGPSVFIFPPKPKDVLMISRTPTVTCVVVDVGHDFPDVQFNWYVDGVETHTATTEPKQEQFNSTYRVVSVLPIQHKDWLSGKEFKCKVNNKALPAPVERTISKPTGQPREPQVYVLAPHRDELSKNKVSVTCLVKDFYPTDIDIEWKSNGQPEPETKYSTTPAQLDSDGSYFLYSKLTVETNRWQQGTTFTCAVDHEALHNHYTEKSVSKSPGK : 40.7 nM

Where do the numbers come from? From patent US20260070987A1.
